This collection of values is drawn from the supplement of paper PMC11451515.

- Test system: P12-Ichikawa
- assay-name: cell viability relative to DMSO control; higher = less cytotoxic
- test-parameters: RPMI 5 mM glucose + 10% dialyzed FBS; 48 h; 1.71 µM
Below, each entry is listed with its recorded cell viability.
Express the result in % but write the number alone.

Example entries begin here.
molecule | observable | readout-unit | quantitative-readout
c1ccc(-c2nn3c(c2-c2ccnc4cc(OCCN5CCOCC5)ccc24)CCC3)nc1 | cell viability | % | 108
NC12CC3CC(CC(C3)C1)C2 | cell viability | % | 118
CC1=CC2=C(O1)C(=C3OC(=O)\C=C(C)/C3=C2)C | cell viability | % | 115
Cc1cc(SCc2sc(-c3ccc(C(F)(F)F)c(F)c3)nc2C)ccc1OCC(=O)O | cell viability | % | 92.8
COc1ccc([C@@H]2CNC(=O)C2)cc1OC1CCCC1 | cell viability | % | 103

Give the measured cell viability for C[C@@H]1CN(CC(=O)N2CC(C)(C)c3ncc(Cc4ccc(F)cc4)cc32)[C@@H](CN2CCOC[C@H]2C)CN1
122

Give the measured cell viability for CN1C(=O)COc2c(C(=O)NC3CN4CCC3CC4)cc(Cl)cc21 (stereo not given)
96.9

Give the measured cell viability for CC(Oc1ccc(O)cc1)(P(=O)(O)O)P(=O)(O)O
93.1

* * *

- Test system: P12-Ichikawa
- assay-name: cell viability relative to DMSO control; higher = less cytotoxic
- test-parameters: RPMI 5 mM glucose + 10% dialyzed FBS; 48 h; 0.00234 µM
observable: cell viability (%)
Express the result in % but write the number alone.

compound | observable | quantitative-readout
COC(=O)N[C@H](C(=O)N[C@@H](Cc1ccccc1)[C@@H](O)CN(Cc1ccc(-c2ccccn2)cc1)NC(=O)[C@@H](NC(=O)OC)C(C)(C)C)C(C)(C)C | cell viability | 111

Give the measured cell viability for C[C@@H]1CN(CC(=O)N2CC(C)(C)c3ncc(Cc4ccc(F)cc4)cc32)[C@@H](CN2CCOC[C@H]2C)CN1
119

Give the measured cell viability for Cl.Cl.Fc1ccc(C(OCCN2CCN(CCCc3ccccc3)CC2)c2ccc(F)cc2)cc1
121

* * *

- Tested on: P12-Ichikawa
- assay-name: cell viability relative to DMSO control; higher = less cytotoxic
- test-parameters: RPMI 5 mM glucose + 10% FBS; 48 h; 46.1 µM
observable: cell viability (%)
Express the result in % but write the number alone.

Example entries begin here.
structure-notation | readout-unit | cell viability
COc1ccc(Cn2ccc3ccc(C(=O)NO)cc32)cc1 | % | 52.3
CCN(CC)CCOC1=CC=C(NC2=NC=C3\C=C(/C(=O)N(C)C3=N2)C4=C(Cl)C=CC=C4Cl)C=C1 | % | 6.43
CC1(C)O[C@H]2CC(=O)OC[C@]23[C@H]2CC[C@@]4(C)[C@H](c5ccoc5)OC(=O)[C@H]5O[C@]54[C@]2(C)C(=O)C[C@@H]13 | % | 112

Give the measured cell viability for c1ccc(-c2nn3c(c2-c2ccnc4cc(OCCN5CCOCC5)ccc24)CCC3)nc1
74.6

Give the measured cell viability for Cc1cnc(Nc2ccc(OCCN3CCCC3)cc2)nc1Nc1cccc([S+](=O)([O-])NC(C)(C)C)c1
112

* * *

- Test system: SEM cells
- assay-name: cell viability relative to DMSO control; higher = less cytotoxic
- test-parameters: RPMI 5 mM glucose + 10% FBS; 48 h; 0.569 µM
Below, each entry is listed with its recorded cell viability.
Express the result in % but write the number alone.

compound | quantitative-readout
O=C1[O][Pt]2([NH]C3CCCCC3[NH]2)[O]C1=O (centres undefined) | 81.7
c1ccc2c(Oc3nc(Nc4ccc(N5CCOCC5)cc4)c4ncn(C5CCCCC5)c4n3)cccc2c1 | 125
CN1[C@@H]2CC(O)C[C@H]1[C@@H]1O[C@@H]12 (some centres undefined) | 109
Nc1ccc([S+](=O)([O-])Nc2ccccn2)cc1 | 122
CCOc1ccccc1OCCNC(C)Cc1ccc(OC)c([S+](N)(=O)[O-])c1 (centres undefined) | 115
COc1ccc(CCC(=O)Nc2nc3ccc(Cl)cc3s2)cc1OC | 124

Under SEM cells, report cell viability for Cc1nc2c([nH]1)-c1ccccc1N(C(=O)c1ccc(NC(=O)c3ccccc3-c3ccccc3)cc1)CC2
141

Under SEM cells, report cell viability for COc1ccc(Cn2ccc3ccc(C(=O)NO)cc32)cc1
127

Under SEM cells, report cell viability for CN(C)CCC=C1C2=C(C=CC=C2)\C=C/C3=C1C=CC=C3
93.1

Under SEM cells, report cell viability for Nc1cccc(-c2cc3c(Oc4cccc(O)c4)ncnc3[nH]2)c1
132

Under SEM cells, report cell viability for O=C(NC1CC1)c1cccc(-c2ccc3c(NC(=O)C4CC4)n[nH]c3c2)c1
103

Under SEM cells, report cell viability for CC1(C)OC/2=C(\[C@H](NCC3=CC=CC=C3)[C@@H]1O)C(=O)C4=CC=CC=C4C2=O
108

Under SEM cells, report cell viability for O=C(C1CCCCC1)N1CC(=O)N2CCc3ccccc3C2C1 (centres undefined)
91.6

Under SEM cells, report cell viability for CCC1=C2C=C(OC(=O)N3CCC(CC3)N4CCCCC4)C=CC2=NC\5=C1CN6C(=O)\C7=C(/C=C56)[C@@](O)(CC)C(=O)OC7
107
